target: MAP4K1 (Homo sapiens); construct: A recombinant fusion protein of N-terminal GST and full-length human; test: TR-FRET-based binding competition assay (Tracer 222, GST-fusion protein); settings: inhibition of binding of Tracer 222 (15 nM) to GST-fusion protein (1 nM), 30 min at 22°C
Sequence (Q92918 whole entry, the tested form may be a part): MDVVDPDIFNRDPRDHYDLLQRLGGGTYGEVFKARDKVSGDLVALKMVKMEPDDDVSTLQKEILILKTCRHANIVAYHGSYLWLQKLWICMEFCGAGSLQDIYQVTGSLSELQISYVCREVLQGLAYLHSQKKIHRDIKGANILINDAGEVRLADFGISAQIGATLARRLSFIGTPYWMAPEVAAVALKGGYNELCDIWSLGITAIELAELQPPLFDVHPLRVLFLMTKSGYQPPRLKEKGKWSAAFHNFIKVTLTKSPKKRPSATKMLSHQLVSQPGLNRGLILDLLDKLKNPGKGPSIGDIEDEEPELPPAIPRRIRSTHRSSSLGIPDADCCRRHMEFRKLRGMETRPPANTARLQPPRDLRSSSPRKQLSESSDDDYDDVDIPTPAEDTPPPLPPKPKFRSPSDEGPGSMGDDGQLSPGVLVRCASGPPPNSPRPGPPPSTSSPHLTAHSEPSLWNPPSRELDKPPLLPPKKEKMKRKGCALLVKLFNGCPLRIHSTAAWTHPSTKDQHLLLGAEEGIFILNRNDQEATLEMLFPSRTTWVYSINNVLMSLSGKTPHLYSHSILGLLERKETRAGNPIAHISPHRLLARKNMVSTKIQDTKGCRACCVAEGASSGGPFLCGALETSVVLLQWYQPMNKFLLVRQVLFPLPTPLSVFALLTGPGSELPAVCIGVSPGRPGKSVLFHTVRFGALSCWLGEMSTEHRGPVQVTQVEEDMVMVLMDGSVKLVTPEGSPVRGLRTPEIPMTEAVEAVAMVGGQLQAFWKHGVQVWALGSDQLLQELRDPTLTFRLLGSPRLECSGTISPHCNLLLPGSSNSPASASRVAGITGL
Outcome measure: pIC50
Interpret pIC50 as the negative base-10 log of the concentration measured in mol/L.

In the examples that follow, each entry is paired with its recorded pIC50.
# Substance smiles, pIC50
measured = [
    ("O=C(NCCN1CCOCC1)Nc1cc(F)c(Oc2ccnc3[nH]cc(C(F)(F)F)c23)c(C(F)(F)F)c1", 7.19),
    ("O=C(NCCCN1CCOCC1)Nc1ccc(Oc2ccnc3[nH]cc(C(F)(F)F)c23)c(OC(F)(F)F)c1", 6.33),
    ("O=C(NCCN1CCOCC1)Nc1ccc(Oc2ccnc3[nH]cc(Cl)c23)c(C(F)(F)F)c1", 6.91),
    ("O=C(NCCCN1CCOCC1)Nc1ccc(Oc2ccnc3[nH]cc(C(F)(F)F)c23)c(C(F)(F)F)c1", 7.25),
    ("O=C(NCCN1CCOCC1)Nc1ccc(Oc2ccnc3[nH]cc(C(F)(F)F)c23)c(C(F)(F)F)c1", 7.16),
]

Need pIC50 of NC(=O)Nc1ccc(Oc2ccnc3[nH]cc(C(F)(F)F)c23)c(C(F)(F)F)c1 , thanks.
7.25

Entry NC(=O)Nc1ccc(Oc2ccnc3[nH]cc(Cl)c23)c(C(F)(F)F)c1 please
6.73

Again, but for COc1cc(NC(=O)NCCCN2CCOCC2)ccc1Oc1ccnc2[nH]cc(C(F)(F)F)c12
6.50

FYI, the data here is from patent EP3638670B1.
